Test system: HL-60(TB) leukemia
Measurement Protocol: NCI tumour cell line growth inhibition, 48 h
For each of the compounds below, state its GI50.

// query Checklist item: GI50 tested on HL-60(TB) leukemia, entry NCCCNCCCCNC(=O)C(O)NC(=O)CCCCCCN=C(N)N (configuration not stated) , value?
// result 2500 µM

// query Checklist item: GI50 tested on HL-60(TB) leukemia, entry CN(C)c1ccc(/C=C/c2cc[n+](C)c(/C=C/c3ccc(N(C)C)cc3)c2)cc1 , value?
// result 0.19 µM

// query Checklist item: GI50 tested on HL-60(TB) leukemia, entry O=C1c2ccccc2-c2c1c1ccccc1c(=O)n2CCCn1ccnc1 , value?
// result 0.2 µM

// query Checklist item: GI50 tested on HL-60(TB) leukemia, entry CCCCCCCc1cc2c3c(nc4ccccc42)C(=O)c2cccnc2-c3n1 , value?
// result 1.42 µM

// query Checklist item: GI50 tested on HL-60(TB) leukemia, entry CCOC(=O)c1c2c(n3ccccc13)C(=O)c1ncccc1C2=O , value?
// result 0.0784 µM

// query Checklist item: GI50 tested on HL-60(TB) leukemia, entry OCC#Cc1ccccc1C#CCCCCCC#Cc1ccccc1C#CCO , value?
// result 18.8 µM

// query Checklist item: GI50 tested on HL-60(TB) leukemia, entry O=c1c(-c2ccccc2)coc2cc(OC/C(=N/O)c3ccccc3)ccc12 , value?
// result 21.3 µM

====

For each of the molecules below, state its TGI.
Tested on: NCI/ADR-RES ovarian
Measurement Protocol: NCI tumour cell line growth inhibition, 48 h

// query Recorded TGI for COc1cc(Cc2nccc3cc(OC)c(OC)cc23)c(N=NN(C)C)cc1OC , please?
// result 96.7 µM

// query Recorded TGI for COC(=O)c1ccccc1C1CN=NC12Cc1cc(C)ccc1C2=O (stereo not given) , please?
// result > 100 µM

// query Recorded TGI for COc1ccc(SCc2cc(OCc3ccccc3)c(OCc3ccccc3)c(OCc3ccccc3)c2)cc1 , please?
// result 3.38 µM

// query Recorded TGI for O=C1CSC(c2cccc([N+](=O)[O-])c2)N1c1ccc(-n2c(-c3ccccc3)nc3ccccc3c2=O)cc1 (stereo not given) , please?
// result > 100 µM

// query Recorded TGI for BrC(c1cccc2ccccc12)c1cccc2ccccc12 , please?
// result 44.2 µM

====

For each of the compounds below, state its TGI.
Tested on: NCI-H23 lung
Measurement Protocol: NCI tumour cell line growth inhibition, 48 h
Respond numerically; units are µM and should not be typed.

// query Checklist item: TGI tested on NCI-H23 lung, entry CCOC(=O)c1c2c(n3ccccc13)C(=O)c1ncccc1C2=O , value?
// result 5.75

// query Checklist item: TGI tested on NCI-H23 lung, entry CC(C)/C(Cl)=N\OC(=O)Nc1cccc(Cl)c1 , value?
// result 34

// query Checklist item: TGI tested on NCI-H23 lung, entry O=[N+]([O-])c1ccc(N/N=C/c2ccc(OCCCCCCCCCCCO)cc2)c([N+](=O)[O-])c1 , value?
// result 45.8

// query Checklist item: TGI tested on NCI-H23 lung, entry C=C1CCC([N+](=O)[O-])[C@](C)(N=O)CC[C@@H]2C1CC2(C)C (stereo not given in full) , value?
// result 33.3
